# Test system: Streptococcus pyogenes SSI-9
# Condition parameters: S. pyogenes
# Protocol: Third, 1 was subjected to five pathogenic Gram-positive bacteria. Evaluation of antibacterial spectra of purified peptides. The MIC assay was performed according to the Clinical and Laboratory Standards Institute protocols. The antibacterial activities of the purified peptides A1, B01–B04, B11–B13, B21, and B22 were measured using the broth microdilution method. 6 Serial dilutions of the peptides were prepared in cation adjusted Mueller Hinton Broth. […]
Where a SMILES comes first, the peptide text is derived from it. [ ]: non-standard residue; d: D form. The star is where a group is joined. NHCH2CH2OH = OCCN*; For = O=C*
This listing pairs compounds with measured antibacterial activity/MIC.
Answer format: numeric, µg/mL implied, no suffix.

The examples below pair each entry with its known result.
{"Compound": "CC(C)C[C@@H](NC(=O)[C@H](Cc1c[nH]c2ccccc12)NC(=O)[C@H](NC(=O)[C@@H](NC(=O)[C@H](NC(=O)[C@H](C)NC(=O)[C@H](NC(=O)[C@H](C)NC(=O)CNC(=O)[C@@H](NC=O)C(C)C)C(C)C)C(C)C)C(C)C)C(C)C)C(=O)N[C@@H](Cc1c[nH]c2ccccc12)C(=O)N[C@@H](C(=O)N[C@@H](Cc1c[nH]c2ccccc12)C(=O)N[C@@H](C(=O)N[C@@H](Cc1c[nH]c2ccccc12)C(=O)NCCO)C(C)C)C(C)C [B01] (For-VGA[dV]A[dV]V[dV]W[dL]W[dV]W[dV]W-NHCH2CH2OH)", "antibacterial activity/MIC [µg/mL]": 0.03}
{"Compound": "CC(C)C[C@@H](NC(=O)[C@H](C)NC(=O)CNC(=O)[C@@H](NC=O)C(C)C)C(=O)N[C@@H](C)C(=O)N[C@@H](C(=O)N[C@H](C(=O)N[C@@H](C(=O)N[C@@H](Cc1c[nH]c2ccccc12)C(=O)N[C@H](CC(C)C)C(=O)N[C@@H](Cc1c[nH]c2ccccc12)C(=O)N[C@H](CC(C)C)C(=O)N[C@@H](Cc1c[nH]c2ccccc12)C(=O)N[C@@H](C(=O)N[C@@H](Cc1c[nH]c2ccccc12)C(=O)NCCO)C(C)C)[C@H](C)O)C(C)C)C(C)C [B12] (For-VGA[dL]A[dV]V[dT]W[dL]W[dL]W[dV]W-NHCH2CH2OH)", "antibacterial activity/MIC [µg/mL]": 0.13}

Exercise: Bench note: what antibacterial activity/MIC did CC(C)C[C@@H](NC(=O)[C@H](C)NC(=O)CNC(=O)[C@@H](NC=O)C(C)C)C(=O)N[C@@H](C)C(=O)N[C@@H](C(=O)N[C@H](C(=O)N[C@@H](C(=O)N[C@@H](Cc1c[nH]c2ccccc12)C(=O)N[C@H](CC(C)C)C(=O)N[C@@H](Cc1c[nH]c2ccccc12)C(=O)N[C@H](CC(C)C)C(=O)N[C@@H](Cc1c[nH]c2ccccc12)C(=O)N[C@H](CC(C)C)C(=O)N[C@@H](Cc1c[nH]c2ccccc12)C(=O)NCCO)[C@H](C)O)C(C)C)C(C)C [B13] (For-VGA[dL]A[dV]V[dT]W[dL]W[dL]W[dL]W-NHCH2CH2OH) show?
Solution: 1

====

# Test system: Streptococcus pyogenes SSI-9
# Experiment summary: Antibacterial activity assay of bead-derived peptides (three concentrations)
# Type: cell-based
# Design: key: +++: inhibition by the 640-fold diluted peptide solution; ++: inhibition by the 160-fold diluted solution; +: inhibition by the 40-fold diluted solution; -: no inhibition
# Condition parameters: S. pyogenes, bead-derived peptide solution, three concentrations
Where a SMILES comes first, the peptide text is derived from it. [ ]: non-standard residue; d: D form. The star is where a group is joined. NHCH2CH2OH = OCCN*; For = O=C*

{"Compound": "CC(C)C[C@@H](NC(=O)[C@H](C)NC(=O)[C@H](NC(=O)[C@H](C)NC(=O)CNC(=O)[C@@H](NC=O)C(C)C)C(C)C)C(=O)N[C@H](C(=O)N[C@H](CC(C)C)C(=O)N[C@@H](Cc1c[nH]c2ccccc12)C(=O)N[C@H](CC(C)C)C(=O)N[C@@H](Cc1c[nH]c2ccccc12)C(=O)N[C@H](CC(C)C)C(=O)N[C@@H](Cc1c[nH]c2ccccc12)C(=O)N[C@@H](C(=O)N[C@@H](Cc1c[nH]c2ccccc12)C(=O)NCCO)[C@H](C)O)C(C)C [compound 129] (For-VGA[dV]A[dL]V[dL]W[dL]W[dL]W[dT]W-NHCH2CH2OH)", "Tested system": "Streptococcus pyogenes SSI-9", "antibacterial activity": "+"}
{"Compound": "CNC(=O)C[C@@H](NC(=O)[C@H](C)NC(=O)[C@@H](CC(C)C)NC(=O)[C@H](C)NC(=O)CNC(=O)[C@@H](NC=O)C(C)C)C(=O)N[C@H](C(=O)N[C@@H](C(=O)N[C@@H](Cc1c[nH]c2ccccc12)C(=O)N[C@H](CC(C)C)C(=O)N[C@@H](Cc1c[nH]c2ccccc12)C(=O)N[C@@H](C(=O)N[C@@H](Cc1c[nH]c2ccccc12)C(=O)N[C@@H](C(=O)N[C@@H](Cc1c[nH]c2ccccc12)C(=O)NCCO)C(C)C)C(C)C)C(C)C)C(C)C [compound 11290] (For-VGA[dL]A[dD](NHMe)V[dV]W[dL]W[dV]W[dV]W-NHCH2CH2OH)", "Tested system": "Streptococcus pyogenes SSI-9", "antibacterial activity": "-"}
{"Compound": "CC(C)C[C@@H](NC(=O)[C@H](C)NC(=O)[C@H](NC(=O)[C@H](C)NC(=O)CNC(=O)[C@@H](NC=O)C(C)C)C(C)C)C(=O)N[C@H](C(=O)N[C@@H](C(=O)N[C@@H](Cc1c[nH]c2ccccc12)C(=O)N[C@H](CC(C)C)C(=O)N[C@@H](Cc1c[nH]c2ccccc12)C(=O)N[C@@H](C(=O)N[C@@H](Cc1c[nH]c2ccccc12)C(=O)N[C@H](CC(C)C)C(=O)N[C@@H](Cc1c[nH]c2ccccc12)C(=O)NCCO)C(C)C)C(C)C)C(C)C [compound 660] (For-VGA[dV]A[dL]V[dV]W[dL]W[dV]W[dL]W-NHCH2CH2OH)", "Tested system": "Streptococcus pyogenes SSI-9", "antibacterial activity": "++"}
{"Compound": "CC(C)C[C@@H](NC(=O)[C@H](C)NC(=O)[C@H](NC(=O)[C@H](C)NC(=O)CNC(=O)[C@@H](NC=O)C(C)C)C(C)C)C(=O)N[C@H](C(=O)N[C@@H](C(=O)N[C@@H](Cc1c[nH]c2ccccc12)C(=O)N[C@H](CC(C)C)C(=O)N[C@@H](Cc1c[nH]c2ccccc12)C(=O)N[C@@H](C(=O)N[C@@H](Cc1c[nH]c2ccccc12)C(=O)N[C@@H](C(=O)N[C@@H](Cc1c[nH]c2ccccc12)C(=O)NCCO)[C@H](C)O)[C@H](C)O)C(C)C)C(C)C [compound 13040] (For-VGA[dV]A[dL]V[dV]W[dL]W[dT]W[dT]W-NHCH2CH2OH)", "Tested system": "Streptococcus pyogenes SSI-9", "antibacterial activity": "-"}
